Field pIC50: reported value for Rho-associated protein kinase 1 (Homo sapiens, UniProt Q13464); entries drawn from several documents.
pIC50: −log10 of the molar value.

Reference set, count: 3
chemical_smiles=COc1ncc(-c2cc3c(c(NC(=O)CN4CCOCC4)c2)COC3)cc1NS(C)(=O)=O readout_name=pIC50 test_value="< 5.00"
chemical_smiles=Cc1n[nH]c2ccc(-c3cc(OC[C@@H](N)Cc4ccccc4)cnc3C#CCCO)cc12 readout_name=pIC50 test_value="< 5.00"
chemical_smiles=O=C(Nc1cccc(-c2nnc(Nc3ccc4[nH]ncc4c3Cl)s2)c1)C(F)(F)F readout_name=pIC50 test_value="< 4.52"

Next:
Prompt: Tell me pIC50 of COc1cccc(CNC(=O)c2cc3ccc(-c4cn[nH]c4)nc3n2Cc2cccc(OC)c2)c1 when tested on Rho-associated protein kinase 1 (Homo sapiens, UniProt Q13464).
Sequence (Q13464 whole entry): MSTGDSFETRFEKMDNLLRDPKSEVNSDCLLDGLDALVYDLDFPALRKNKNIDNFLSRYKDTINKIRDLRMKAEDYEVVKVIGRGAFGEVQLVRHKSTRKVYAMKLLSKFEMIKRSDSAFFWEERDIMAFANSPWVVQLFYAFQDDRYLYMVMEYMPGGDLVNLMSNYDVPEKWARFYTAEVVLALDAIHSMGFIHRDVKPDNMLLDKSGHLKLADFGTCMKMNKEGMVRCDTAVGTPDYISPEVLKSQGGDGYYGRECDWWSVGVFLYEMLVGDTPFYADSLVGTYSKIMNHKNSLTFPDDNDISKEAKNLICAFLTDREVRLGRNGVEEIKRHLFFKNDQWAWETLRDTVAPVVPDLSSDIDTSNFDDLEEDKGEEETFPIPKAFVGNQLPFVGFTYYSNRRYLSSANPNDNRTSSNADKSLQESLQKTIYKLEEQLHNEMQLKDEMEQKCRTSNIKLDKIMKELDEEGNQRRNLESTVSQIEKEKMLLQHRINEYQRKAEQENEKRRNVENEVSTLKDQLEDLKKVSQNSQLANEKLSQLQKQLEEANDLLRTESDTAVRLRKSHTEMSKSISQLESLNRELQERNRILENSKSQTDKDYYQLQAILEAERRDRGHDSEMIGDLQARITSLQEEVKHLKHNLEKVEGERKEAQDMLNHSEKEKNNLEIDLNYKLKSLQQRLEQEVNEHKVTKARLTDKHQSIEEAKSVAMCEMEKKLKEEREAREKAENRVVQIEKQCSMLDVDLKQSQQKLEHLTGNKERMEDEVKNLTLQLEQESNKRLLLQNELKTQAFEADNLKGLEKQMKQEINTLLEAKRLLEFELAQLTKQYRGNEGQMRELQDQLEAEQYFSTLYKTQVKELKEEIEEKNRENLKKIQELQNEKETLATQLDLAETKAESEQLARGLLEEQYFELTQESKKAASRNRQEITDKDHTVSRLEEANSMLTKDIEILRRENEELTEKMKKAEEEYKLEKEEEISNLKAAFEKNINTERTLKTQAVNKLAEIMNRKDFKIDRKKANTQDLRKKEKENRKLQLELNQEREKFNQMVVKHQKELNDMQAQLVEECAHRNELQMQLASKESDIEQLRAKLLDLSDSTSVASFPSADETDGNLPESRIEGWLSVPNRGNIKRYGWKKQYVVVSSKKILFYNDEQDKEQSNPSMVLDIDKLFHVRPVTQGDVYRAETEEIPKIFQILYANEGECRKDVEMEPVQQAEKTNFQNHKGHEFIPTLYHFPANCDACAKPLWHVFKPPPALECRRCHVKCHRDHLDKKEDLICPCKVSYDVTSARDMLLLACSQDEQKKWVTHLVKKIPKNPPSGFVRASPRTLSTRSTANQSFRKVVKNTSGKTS
Completion: < 4.70
